The reader will find reported microsomal CLint at 2 μM values listed item by item below.
Assay: Microsomal stability
Conditions: human, microsomes, pH 7.4
experimental_readout: microsomal CLint at 2 μM (µL/min/mg)

compound="CCCCN(Cc1ccc(N2CCNCC2)cc1)C(=O)c1ccc(S(=O)(=O)Nc2ccccc2)cc1 [Compound 49]" reading=50
compound="O=C(c1ccc(S(=O)(=O)Nc2ccccc2)cc1)N(Cc1ccc2[nH]ccc2c1)CC1CC1 [Compound 61]" reading=288
compound="C[C@H](c1ccccc1)N(CC1CC1)C(=O)c1ccc(S(=O)(=O)Nc2ccccc2)cc1 [Compound 65]" reading=419
compound="CCCCN(Cc1ccc(OC)cc1)C(=O)c1ccc(S(=O)(=O)Nc2ccccc2)cc1 [Compound 40]" reading=280

###

Target: LIMK1 (Homo sapiens)
Sequence (P53667 whole entry): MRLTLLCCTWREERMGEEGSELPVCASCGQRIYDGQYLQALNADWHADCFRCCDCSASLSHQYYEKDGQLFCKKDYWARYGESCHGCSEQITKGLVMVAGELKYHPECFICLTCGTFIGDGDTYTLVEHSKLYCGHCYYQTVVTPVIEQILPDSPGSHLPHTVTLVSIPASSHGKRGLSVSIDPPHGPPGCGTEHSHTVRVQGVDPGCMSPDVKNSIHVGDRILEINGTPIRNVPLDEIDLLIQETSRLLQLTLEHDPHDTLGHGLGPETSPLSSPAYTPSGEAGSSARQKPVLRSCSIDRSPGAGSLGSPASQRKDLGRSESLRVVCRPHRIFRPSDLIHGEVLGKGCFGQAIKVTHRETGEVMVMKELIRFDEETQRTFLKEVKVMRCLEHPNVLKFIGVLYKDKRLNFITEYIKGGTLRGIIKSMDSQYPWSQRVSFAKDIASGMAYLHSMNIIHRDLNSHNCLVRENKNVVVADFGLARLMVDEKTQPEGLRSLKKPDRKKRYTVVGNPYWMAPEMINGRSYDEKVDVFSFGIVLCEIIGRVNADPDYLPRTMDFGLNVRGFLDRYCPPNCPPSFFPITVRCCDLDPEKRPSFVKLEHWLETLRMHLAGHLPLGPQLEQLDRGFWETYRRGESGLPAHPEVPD
Assay: RapidFire mass spectrometry kinase assay (cofilin phosphorylation)
Format: biochemical
Details: non-phosphorylated LIMK1; mean ± SEM; read-out: Enzymatic (RapidFire) pIC50 LIMK1 (converted)
experimental_readout: IC50 (µM)

smiles_notation=CCCCN(Cc1ccc(F)cc1)C(=O)c1ccc(S(=O)(=O)Nc2ccccc2)cc1 experimental_readout=IC50 relational_operator== reading=0.195
smiles_notation=O=C(c1ccc(S(=O)(=O)Nc2ccccc2)cc1)N(Cc1ccc2ncoc2c1)CC1CC1 experimental_readout=IC50 relational_operator== reading=0.0955
smiles_notation=CCCCN(Cc1ccccn1)C(=O)c1ccc(S(=O)(=O)Nc2ccccc2)cc1 experimental_readout=IC50 relational_operator== reading=1.29
smiles_notation=CCCCN(Cc1ccccc1)C(=O)c1ccc(S(=O)(=O)NC2COC2)cc1 experimental_readout=IC50 relational_operator=> reading=10

###

The reader will find reported half-life at 1 h values listed item by item below.
Assay: In vivo PK, i.v. dosing
Details: male, Sprague-Dawley, rat, plasma, iv, 1 mg/kg
experimental_readout: half-life at 1 h (min)

compound="CCCCN(Cc1ccc2[nH]ccc2c1)C(=O)c1ccc(S(=O)(=O)Nc2ccccc2)cc1 [Compound 51]" reading=30
compound="O=C(c1ccc(S(=O)(=O)Nc2ccccc2)cc1)N(Cc1ccc(NCCO)cn1)CC1CC1 [Compound 74]" reading=42

###

Experiment: Microsomal stability
Conditions: human, microsomes, pH 7.4
experimental_readout: microsomal CLint at 2 μM

molecule=CN(CCO)c1ccc(CN(CC2CC2)C(=O)c2ccc(S(=O)(=O)Nc3ccccc3)cc2)nc1 experimental_readout="microsomal CLint at 2 μM" reading="109 µL/min/mg"
molecule=CN(C)CCNc1ccc(CN(CC2CC2)C(=O)c2ccc(S(=O)(=O)Nc3ccccc3)cc2)nc1 experimental_readout="microsomal CLint at 2 μM" reading="23 µL/min/mg"
molecule=CCCCN(Cc1ccc(CCC(=O)O)cc1)C(=O)c1ccc(S(=O)(=O)Nc2ccccc2)cc1 experimental_readout="microsomal CLint at 2 μM" reading="15 µL/min/mg"
molecule="CCCCN(CC1CCCO1)C(=O)c1ccc(S(=O)(=O)Nc2ccccc2)cc1 (centres unmarked)" experimental_readout="microsomal CLint at 2 μM" reading="427 µL/min/mg"
molecule=CCCCN(Cc1ccncc1)C(=O)c1ccc(S(=O)(=O)Nc2ccccc2)cc1 experimental_readout="microsomal CLint at 2 μM" reading="144 µL/min/mg"
molecule=O=C(c1ccc(S(=O)(=O)Nc2ccccc2)cc1)N(CCCn1ccnc1)Cc1ccccc1 experimental_readout="microsomal CLint at 2 μM" reading="80 µL/min/mg"
molecule=Cc1nc(CN(CC2CC2)C(=O)c2ccc(S(=O)(=O)Nc3ccccc3)cc2)ccc1NCCO experimental_readout="microsomal CLint at 2 μM" reading="97 µL/min/mg"
molecule=O=C(c1ccc(S(=O)(=O)Nc2ccccc2)cc1)N(Cc1ccccc1)C1CC1 experimental_readout="microsomal CLint at 2 μM" reading="396 µL/min/mg"
